src = patent US9340477B2

test: Physicochemical properties: solubility in solvents; conditions: chloroform
result type: Solubility: Chloroform

>  <molecule>
CC(c1ccc(O)c(O)c1)c1c(O)cc(/C=C/c2ccc(O)cc2)cc1O (single isomer, unassigned)

>  <result>
Soluble

$$$$
>  <molecule>
COc1cc(C(C)c2c(O)cc(/C=C/c3ccc(O)cc3)c(C(C)c3ccc(O)c(OC)c3)c2O)ccc1O (stereo not shown)

>  <result>
Soluble

$$$$
>  <molecule>
CC(c1ccc(O)cc1)c1c(O)cc(/C=C/c2ccc(O)cc2)cc1O (single isomer, unassigned)

>  <result>
Soluble

$$$$
>  <molecule>
CC(c1ccc(O)cc1)c1c(O)cc(/C=C/c2ccc(O)c(O)c2)cc1O (single isomer, unassigned)

>  <result>
Soluble

$$$$

###

Each record here notes measured IC50.
test system: HL-60 cells (human promyelocytic leokemia cells); assay: Cancer cell growth suppressing action using HL-60 cells (Cell counting kit-8); format: cell-based; conditions: 24 hours, 6.3-100 μM, viable cells vs DMSO only, read-out: Cell growth suppressing ability to HL-60 (IC50)
Write the value in µM as a bare number.

Please review the entries below; each comes with its answer.
>  <molecule>
COc1cc(C(C)c2c(O)cc(/C=C/c3ccc(O)cc3)c(C(C)c3ccc(O)c(OC)c3)c2O)ccc1O (centres unmarked)

>  <target entity>
HL-60 cells (human promyelocytic leokemia cells)

>  <unit symbol>
µM

>  <quantitative result>
13.4

$$$$
>  <molecule>
COc1cc(/C=C/c2ccc(O)cc2)cc(OC)c1 [Pterostilbene, pterostilbene, reference compound]

>  <target entity>
HL-60 cells (human promyelocytic leokemia cells)

>  <unit symbol>
µM

>  <quantitative result>
60.4

$$$$
>  <molecule>
COc1cc(C(C)c2c(O)cc(/C=C/c3ccc(O)cc3)cc2O)cc(OC)c1O (centres unmarked)

>  <target entity>
HL-60 cells (human promyelocytic leokemia cells)

>  <unit symbol>
µM

>  <quantitative result>
14.1

$$$$

I am curious: what IC50 value has been reported for COc1cc(C(C)c2c(O)cc(/C=C/c3ccc(O)cc3)cc2O)ccc1O (centres unmarked) ?
31.5

I am curious: what IC50 value has been reported for CC(c1ccc(O)cc1)c1c(O)cc(/C=C/c2ccc(O)cc2)cc1O (single isomer, unassigned) ?
43.4

###

test system: SCC-4 cells (human oral cancer cells, ATCC); experiment: Cancer cell growth suppressing action using SCC-4 oral cancer cells (Cell counting kit-8); format: cell-based; details: 6.3-100 μM, Cell counting kit-8, DMSO negative control, read-out: Cell growth suppressing ability (IC50)
result type: pIC50
The read-out pIC50 is expressed as -log10 of concentration in moles per litre.

Please review the entries below; each comes with its answer.
>  <molecule>
CC(c1ccc(O)cc1)c1c(O)cc(/C=C/c2ccc(O)c(O)c2)cc1O (single isomer, unassigned)

>  <target entity>
SCC-4 cells (human oral cancer cells, ATCC)

>  <pIC50>
4.30

$$$$
>  <molecule>
COc1cc(/C=C/c2ccc(O)cc2)cc(OC)c1C(C)c1ccc(O)cc1 (stereo not shown)

>  <target entity>
SCC-4 cells (human oral cancer cells, ATCC)

>  <pIC50>
4.38

$$$$
>  <molecule>
CC(c1ccc(O)cc1)c1c(O)cc(/C=C/c2ccc(O)cc2)cc1O (single isomer, unassigned)

>  <target entity>
SCC-4 cells (human oral cancer cells, ATCC)

>  <pIC50>
4.42

$$$$
>  <molecule>
COc1cc(C(C)c2c(O)cc(O)cc2/C=C/c2ccc(O)cc2)ccc1O (stereo not shown)

>  <target entity>
SCC-4 cells (human oral cancer cells, ATCC)

>  <pIC50>
4.76

$$$$

I am curious: what pIC50 value has been reported for COc1cc(/C=C/c2ccc(O)cc2)cc(OC)c1 [Pterostilbene, pterostilbene, reference compound] ?
4.13

I am curious: what pIC50 value has been reported for COc1cc(C(C)c2c(O)cc(/C=C/c3ccc(O)cc3)cc2O)ccc1O (stereo not shown) ?
4.30

I am curious: what pIC50 value has been reported for COc1cc(C(C)c2c(O)cc(/C=C/c3ccc(O)cc3)cc2O)cc(OC)c1O (stereo not shown) ?
4.75

I am curious: what pIC50 value has been reported for CC(c1ccc(O)c(O)c1)c1c(O)cc(/C=C/c2ccc(O)cc2)cc1O (single isomer, unassigned) ?
4.54

I am curious: what pIC50 value has been reported for COc1cc(/C=C/c2ccc(O)cc2)c(C(C)c2ccc(O)cc2)c(OC)c1 (stereo not shown) ?
4.43

I am curious: what pIC50 value has been reported for COc1cc(C(C)c2c(O)cc(/C=C/c3ccc(O)cc3)c(C(C)c3ccc(O)c(OC)c3)c2O)ccc1O (stereo not shown) ?
4.58

###

test system: HL-60 cells (human promyelocytic leokemia cells); experiment: Cancer cell growth suppressing action using HL-60 cells (Cell counting kit-8); format: cell-based; conditions: 24 hours, 6.3-100 μM, viable cells vs DMSO only, read-out: Cell growth suppressing ability to HL-60 (IC50)
Exam item: assign condition met to entries whose IC50 is below 40 µM and condition not met to entries at or above 40 µM. Note that a value of exactly 40 µM receives condition not met.

Previously resolved entries follow.
>  <compound>
COc1cc(/C=C/C(=O)O)cc(OC)c1O [Sinapic acid, sinapic acid, reference compound]

>  <cat>
condition not met

$$$$
>  <compound>
COc1cc(/C=C/c2ccc(O)cc2)cc(OC)c1C(C)c1ccc(O)cc1 (stereo not drawn)

>  <cat>
condition met

$$$$
>  <compound>
CC(c1ccc(O)c(O)c1)c1c(O)cc(/C=C/c2ccc(O)cc2)cc1O (single isomer, unassigned)

>  <cat>
condition met

$$$$
>  <compound>
Oc1ccc(C=Cc2cc(O)cc(O)c2)cc1 [Resveratrol, resveratrol, reference compound]

>  <cat>
condition not met

$$$$
>  <compound>
COc1cc(C(C)c2c(O)cc(O)cc2/C=C/c2ccc(O)cc2)ccc1O (stereo not drawn)

>  <cat>
condition met

$$$$

Then there is this compound:
Lab log: compare recorded IC50 with 40 µM; is it strictly lower for COc1cc(/C=C/c2ccc(O)cc2)c(C(C)c2ccc(O)cc2)c(OC)c1 (stereo not drawn) ?
condition met

###

molecular target: rat intestine derived lipase; assay: Lipase inhibitory action test (Lipase kit S); conditions: rat intestine acetone powder lipase, 30° C., 10 minutes reaction
result type: pIC50
The read-out pIC50 is expressed as -log10 of concentration in moles per litre.

Please review the entries below; each comes with its answer.
>  <compound>
COc1cc(C(C)c2c(O)cc(/C=C/c3ccc(O)cc3)cc2O)cc(OC)c1O (stereo not shown)

>  <target entity>
rat intestine derived lipase

>  <pIC50>
3.29

$$$$
>  <compound>
CC(c1ccc(O)cc1)c1c(O)cc(/C=C/c2ccc(O)cc2)cc1O (single isomer, unassigned)

>  <target entity>
rat intestine derived lipase

>  <pIC50>
3.48

$$$$

// moving on: another record for pIC50
I am curious: what pIC50 value has been reported for CC(c1ccc(O)c(O)c1)c1c(O)cc(/C=C/c2ccc(O)cc2)cc1O (single isomer, unassigned) ?
3.35

###

assay: Physicochemical properties: solubility in solvents; conditions: ethyl acetate
result type: Solubility: Ethyl acetate

Please review the entries below; each comes with its answer.
>  <compound>
COc1cc(/C=C/c2ccc(O)cc2)cc(OC)c1C(C)c1ccc(O)cc1 (stereo not drawn)

>  <result>
Soluble

$$$$
>  <compound>
COc1cc(C(C)c2c(O)cc(O)cc2/C=C/c2ccc(O)cc2)ccc1O (stereo not drawn)

>  <result>
Soluble

$$$$
>  <compound>
CC(c1ccc(O)cc1)c1c(O)cc(/C=C/c2ccc(O)c(O)c2)cc1O (single isomer, unassigned)

>  <result>
Soluble

$$$$
>  <compound>
CC(c1ccc(O)cc1)c1c(O)cc(/C=C/c2ccc(O)cc2)cc1O (single isomer, unassigned)

>  <result>
Soluble

$$$$
>  <compound>
CC(c1ccc(O)c(O)c1)c1c(O)cc(/C=C/c2ccc(O)cc2)cc1O (single isomer, unassigned)

>  <result>
Soluble

$$$$
>  <compound>
COc1cc(C(C)c2c(O)cc(/C=C/c3ccc(O)cc3)cc2O)cc(OC)c1O (stereo not drawn)

>  <result>
Soluble

$$$$
>  <compound>
COc1cc(C(C)c2c(O)cc(/C=C/c3ccc(O)cc3)c(C(C)c3ccc(O)c(OC)c3)c2O)ccc1O (stereo not drawn)

>  <result>
Soluble

$$$$
>  <compound>
COc1cc(C(C)c2c(O)cc(/C=C/c3ccc(O)cc3)cc2O)ccc1O (stereo not drawn)

>  <result>
Soluble

$$$$

// moving on: another record for Solubility: Ethyl acetate
I am curious: what Solubility: Ethyl acetate value has been reported for COc1cc(/C=C/c2ccc(O)cc2)c(C(C)c2ccc(O)cc2)c(OC)c1 (stereo not drawn) ?
Soluble

###

experiment: Physicochemical properties: solubility in solvents; settings: water
result type: Solubility: Water

Please review the entries below; each comes with its answer.
>  <compound>
COc1cc(C(C)c2c(O)cc(/C=C/c3ccc(O)cc3)cc2O)ccc1O (centres unmarked)

>  <result>
Poorly soluble

$$$$
>  <compound>
CC(c1ccc(O)cc1)c1c(O)cc(/C=C/c2ccc(O)c(O)c2)cc1O (single isomer, unassigned)

>  <result>
Poorly soluble

$$$$
>  <compound>
CC(c1ccc(O)c(O)c1)c1c(O)cc(/C=C/c2ccc(O)cc2)cc1O (single isomer, unassigned)

>  <result>
Poorly soluble

$$$$
>  <compound>
COc1cc(C(C)c2c(O)cc(/C=C/c3ccc(O)cc3)cc2O)cc(OC)c1O (centres unmarked)

>  <result>
Poorly soluble

$$$$

// moving on: another record for Solubility: Water
I am curious: what Solubility: Water value has been reported for COc1cc(/C=C/c2ccc(O)cc2)cc(OC)c1C(C)c1ccc(O)cc1 (centres unmarked) ?
Poorly soluble
